assayed system: Gag-Pol polyprotein [588-1027] (Human immunodeficiency virus type 1 group M subtype B (isolate HXB2))
Construct: 588-1027
assay explanation: Reverse Transcriptase Assay
assay conditions: pH 7.8; 37 °C
measured metric: IC50

Q: What does the record list as IC50 for `CNCc1n[nH]c2cccc(Oc3cc(C#N)cc(C#N)c3)c12` ?
A: > 30 µM
